Values were extracted from the supplement of paper PMC10567573.

B1: KIAA1161 (parent)
chain: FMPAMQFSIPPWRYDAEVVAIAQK

Variants of: B1
Test: protein stability index of a GFP-peptide fusion (GPS, HEK-293T) (PSI 1-6); higher = more stable;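 note: lentivirally expressed fusions sorted by FACS into six bins by GFP to DsRed ratio, PSI derived from sequencing read proportions per bin multiplied by bin number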
Conditions: c terminus: a fixed tail appended
Quantity measured: protein stability index
Give bare numbers.

M5F    2.25
S8T    1.64
Q6N    2.66
W12L    2.23
P10S    2.42

Enquiry: I have this variant here, V19N , and I need its recorded protein stability index.
Return: 3.31
